target: RIPK2 and XIAP protein-protein interaction (Homo sapiens, UniProt O43353); construct: the N-terminus of full-length RIPK2 was appended with the HaloTag fusion protein; assay: Inhibition of the interaction of RIPK2 with XIAP (NanoBRET in HEK293T cells); conditions: RIPK2 HaloTag / XIAP NanoLuc, read-out: NanoBRET Scaffolding IC50
Sequence (O43353 whole entry, the tested form may be a part): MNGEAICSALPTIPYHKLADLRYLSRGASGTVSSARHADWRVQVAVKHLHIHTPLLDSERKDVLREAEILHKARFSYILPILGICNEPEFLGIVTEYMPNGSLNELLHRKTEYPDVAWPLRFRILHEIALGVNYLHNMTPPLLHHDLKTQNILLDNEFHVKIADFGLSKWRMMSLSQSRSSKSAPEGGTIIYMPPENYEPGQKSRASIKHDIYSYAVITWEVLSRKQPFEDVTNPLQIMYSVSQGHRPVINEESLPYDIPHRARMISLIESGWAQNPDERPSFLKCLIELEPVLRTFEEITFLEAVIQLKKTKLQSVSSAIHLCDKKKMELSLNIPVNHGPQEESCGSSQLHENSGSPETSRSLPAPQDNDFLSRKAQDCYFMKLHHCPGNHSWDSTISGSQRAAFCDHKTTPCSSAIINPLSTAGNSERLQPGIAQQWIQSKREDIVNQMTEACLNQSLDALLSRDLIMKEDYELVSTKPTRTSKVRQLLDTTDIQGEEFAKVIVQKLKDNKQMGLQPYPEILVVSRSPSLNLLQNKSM
PROPERTY LABEL: IC50
# include the unit after the value

[[record]]
compound = "Cc1cc(CC(=O)Nc2nnc(C(C)(C)C)s2)c(F)cc1Oc1ccnc2ccc(S(C)(=O)=O)cc12"
test_target = "RIPK2 and XIAP protein-protein interaction (Homo sapiens, UniProt O43353)"
property_label = "IC50"
observed = "11 nM"

[[record]]
compound = "Cc1cc(CC(=O)Nc2cnn(C(C)(C)C)c2)c(F)cc1Oc1ccnc2ccc(C(C)(C)C(N)=O)cc12"
test_target = "RIPK2 and XIAP protein-protein interaction (Homo sapiens, UniProt O43353)"
property_label = "IC50"
observed = "179 nM"

[[record]]
compound = "Cc1cc(CC(=O)Nc2cnn(C(C)(C)C)c2)c(F)cc1Oc1ccnc2ccc(C(=O)N3C[C@@H]4C[C@H]3CN4)cc12"
test_target = "RIPK2 and XIAP protein-protein interaction (Homo sapiens, UniProt O43353)"
property_label = "IC50"
observed = "1020 nM"

[[record]]
compound = "Cc1c(Oc2ccnc3ccc(S(=N)(=O)C4CC4)cc23)ccc(CC(=O)Nc2cnn(C(C)(C)C)c2)c1F (single isomer, unassigned) [Compound 442]"
test_target = "RIPK2 and XIAP protein-protein interaction (Homo sapiens, UniProt O43353)"
property_label = "IC50"
observed = "3 nM"

[[record]]
compound = "Cc1c(Oc2ccnc3ccc(S(C)(=O)=O)cc23)cc(F)c(CC(=O)Nc2cnn(C(C)(C)C)c2)c1F"
test_target = "RIPK2 and XIAP protein-protein interaction (Homo sapiens, UniProt O43353)"
property_label = "IC50"
observed = "13.3 nM"


Task: State its IC50 for this compound: Cc1cc(CC(=O)Nc2cnn(C(C)(C)C)c2)cc(Cl)c1Oc1ccnc2ccc(C(N)=O)cc12
Result: 103 nM

Task: State its IC50 for this compound: [2H]C([2H])([2H])NC(=O)c1ccc2nccc(Oc3ccc(CC(=O)Nc4cnn(C56CC(C5)C6)c4)cc3C)c2c1
Result: 95.8 nM
